Biological target: T1, recombinant trimeric protein of human CD70 extracellular region (human CD70 mIgG Fc (knob) / mouse IgG Fc … (human, UniProt P01863 98-330 = IgG part))
T1 construct: The ELISA and Octet texts say only 'recombinant CD70 protein' / 'CM352 antigen'; also called recombinant human CD70 protein; recombinant CD70 protein
T1 chain 1: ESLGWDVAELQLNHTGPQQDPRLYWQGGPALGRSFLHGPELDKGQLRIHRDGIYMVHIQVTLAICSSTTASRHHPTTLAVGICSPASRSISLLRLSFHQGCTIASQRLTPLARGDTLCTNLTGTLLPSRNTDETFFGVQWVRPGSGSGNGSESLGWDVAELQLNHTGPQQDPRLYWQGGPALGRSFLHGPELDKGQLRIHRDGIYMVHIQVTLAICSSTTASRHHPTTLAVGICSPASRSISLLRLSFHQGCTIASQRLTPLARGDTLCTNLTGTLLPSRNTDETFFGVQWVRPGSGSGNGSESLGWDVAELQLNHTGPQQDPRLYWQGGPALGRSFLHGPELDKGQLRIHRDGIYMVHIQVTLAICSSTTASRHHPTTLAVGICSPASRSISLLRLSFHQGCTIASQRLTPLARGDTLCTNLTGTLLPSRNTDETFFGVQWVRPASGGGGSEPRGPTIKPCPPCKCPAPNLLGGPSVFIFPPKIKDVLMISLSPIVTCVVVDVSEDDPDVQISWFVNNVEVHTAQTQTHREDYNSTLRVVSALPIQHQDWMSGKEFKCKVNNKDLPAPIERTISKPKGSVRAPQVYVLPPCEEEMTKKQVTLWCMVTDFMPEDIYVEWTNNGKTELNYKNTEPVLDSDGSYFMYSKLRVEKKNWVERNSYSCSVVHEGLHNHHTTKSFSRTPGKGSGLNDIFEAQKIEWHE
T1 chain 2: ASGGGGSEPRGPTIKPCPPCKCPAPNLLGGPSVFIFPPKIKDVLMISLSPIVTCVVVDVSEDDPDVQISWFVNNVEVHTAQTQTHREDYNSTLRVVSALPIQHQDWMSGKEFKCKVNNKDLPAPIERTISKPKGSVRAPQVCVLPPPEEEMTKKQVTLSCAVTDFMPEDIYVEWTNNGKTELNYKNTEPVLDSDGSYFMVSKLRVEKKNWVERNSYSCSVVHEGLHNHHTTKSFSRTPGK
Test: competition ELISA, Fab titrated, human CD27 coated, biotin-CD70
pIC50: −log10 of the molar value.
Use yes when the recorded pIC50 is no lower than 9; use no when it is lower.

binder	assignedClass
27A3 Fab antibody (Fab, V domains shown, Purified Fab from the mouse Fab phage display library) VH: EVQLQESGPGLVQPSQSLSITCTVSGFSLTTYAVHWVRQSPGKGLEWLGVIWSTGITDYNADFISRLSISKDNSKSQVFFKMDSLQSDDTAIYFCARNHYYGNLNAMDYWGQGTSVTVSS VL: DIVLTQSPASLAVSLGQRATISCRASKSVSTSGYSFMHWYQQKPGQPPKLLIYLASNLESGVPARFSGSGSGTDFTLNIHPVEEEDAATYYCQHSRELPYTFGGGTKLEIK	yes
3B2 Fab antibody (Fab, V domains shown, Purified Fab from the mouse Fab phage display library) VH: EVQLKQSGPGLVQPSQSLSITCTVSGFSLTTYGVHWVRQSPGKGLEWLGVIWSTGITDYNAAFISRLSISKDNSKSQVFFKMNSLQADDTAIYYCARNSYYGNLYVMDYWGQGTSVTVSS VL: DIVLTQSPASLAVSLGQRATISCRASKSVSASGYNFMHWYQQKPGQPPKLLIYLASNLESGVPARFSGSGSGTDFTLNIHPVEEEDAATYYCQHSRELPLTFGAGTKLELK	yes
23A11 Fab antibody (Fab, V domains shown, Purified Fab from the mouse Fab phage display library) VH: QVQLQQSGPGLVQPSQSLSITCTVSGFSLTTYAVHWVRQSPGKGLEWLGVIWSVGSTDYNAAFISRLSISKDNSKSQVFFKMNSLQADDTAIYYCARNIYYGNVYAMDYWGQGTSVTVSS VL: DIVLTQSPASLAVSLGQRATISCRASKSVDASGYSFMHWYQQKAGQPPKLLIYLASNLESGVPARFSGRGSGTDFTLNIHPVEEGDAATYYCQHSRELPLTFGAGTKLEIK	yes
39H5 Fab antibody (Fab, V domains shown, Purified Fab from the mouse Fab phage display library) VH: EIQLVQSGPELKKPGETVKISCKASGYTFTNYGMNWVKQAPGQGLKWMGWINTYTGEPTYADDFTGRFAFSLETSASTAYLQINNLKNEDMAAYFCAREEDYRYVFNYWGQGTTLTVSS VL: DIQMIQSTSSLSASLGNRVTISCRASQDISNYLNWYQQKPDGTVKLLIYDTSRLHAGVPSRFSGSGSGTDYSLTISNLEQEDIATYFCQQGVTLPLTFGAGTKLEIK	yes
26G11 Fab antibody (Fab, V domains shown, Purified Fab from the mouse Fab phage display library) VH: QVQLQQSGPELVKPGASVKISCKTSGYTFADYTMHWVRQSQGKSLEWIGDIYPNDGGPNNNQKFKDKATLTVDKSSSTAYMELRSLTSEDSAVYYCARPFYYGNYAGFAFWGQGTLVTVSA VL: EMVLTQSPAIMSASPGEKVTMTCSASSSVSYMYWYQQKPGSSPRLLIYDTSNLASGVPVRFSGSGSGTSYSLTISRMEAEDAATYYCQQWSSYPLTFGAGTRLEIK	no
2B12 Fab antibody (Fab, V domains shown, Purified Fab from the mouse Fab phage display library) VH: QVQLQQSGPGLVQPSQSLSITCTVSGFSLTTYAVHWVRQSPGKGLEWLGVIWSTGITDYNAAFISRLSISKDNSKSQVFFKMNSLQSDDIAIYYCARNPYYGNLNAMDYWGQGTSVTVSS VL: DIVLTQSPASLAVSLGQRATISCRASKSVDTSGYSFMHWYQQKPGQPPKLLIYLASNLESGVPARFSGSGSGTDFTLNIHPVEEEDAATYYCQHSRELPLTFGAGTKLELK	yes
